Assay: in vitro
Conditions: human, hela cells, % viability
Measured metric: viability at 28.5 h, 10 µM
Quote the value and follow it with the unit of measurement.

Consider the worked cases shown below.
compound="COc1ccc(Oc2cncc(OC3CCN(CC(=O)Nc4c(C)cccc4C)C3)n2)cc1OC (centres unmarked) [CBK084403]" measured_metric="viability at 28.5 h, 10 µM" result=101%
compound="c1ccc(-n2cc(-c3cncn3CCCN3CCCCC3)cn2)cc1 [CBK281465]" measured_metric="viability at 28.5 h, 10 µM" result=92.4%
compound="CCO[C@H]1COC[C@@H]1NC(=O)c1cccc2c1NCCC2 [CBK307113]" measured_metric="viability at 28.5 h, 10 µM" result=94.9%
compound="COc1ccc(Oc2cncc(OC3CCN(CCc4ccc(F)cc4)C3)n2)cc1OC (centres unmarked) [CBK084409]" measured_metric="viability at 28.5 h, 10 µM" result=94.1%
compound="CN(CCC#N)S(=O)(=O)c1ccc(OC(F)(F)F)cc1 [CBK044415]" measured_metric="viability at 28.5 h, 10 µM" result=88.1%
compound="CC(C)NC(=O)CSc1nc2ccccc2[nH]1 [CBK072235]" measured_metric="viability at 28.5 h, 10 µM" result=92.9%
compound="CC(=O)N1CCC[C@H]2NC(=O)CNC(=O)C3(C/C=C/C[C@H]21)CCN(CC(C)C)CC3 [CBK292088]" measured_metric="viability at 28.5 h, 10 µM" result=106%

We next turn to a different compound, shown below.
Reported viability at 28.5 h, 10 µM for CCOC(=O)c1sc(-c2ccc(Br)cc2)nc1O [CBK075087] was 103%

----------
Tested on: HeLa
Conditions: bulk resorufin, single well, 28.5 h, 10 µM, Bulk resorufin fluorescence
Measured metric: % viability (%)
Use % as the unit, but write only the number.

compound=C[C@H](Cn1c(C(F)(F)F)cc2cccnc21)NC(=O)c1ccco1 result=94.6
compound=C[C@H](Cn1c(=O)oc2ccccc21)NC(=O)CC1c2ccccc2Oc2ccccc21 result=96.8
compound=O=C(O)CCCNc1ccc(S(=O)(=O)N2CCCCC2)cc1 result=90.5
compound="CCOC(=O)C1=C(C)NC(=O)NC1c1ccc(Cl)cc1Cl (stereo not shown)" result=91
compound=COc1ccc2[nH]cc(CC(=O)N3CCC(C#N)(c4ccccc4)CC3)c2c1 result=105
compound=COc1ccccc1CC(=O)Nc1ccc(O)cc1C(=O)O result=91.2

Consider the record given below.
% viability in this record for C=CCNC(=O)Cn1c([C@@H]2CCCO2)cc2cccnc21 : 110

----------
Experiment: in vitro
Settings: human, hela cells, % viability
Listing of recorded viability at 28.5 h, 10 µM by entry.
Kindly provide the numeric value in % only, without the unit symbol.

Worked cases, answers included:
molecule="COc1cccc(CNc2nccnc2-c2ccsc2)c1OC [CBK037543]" result=107
molecule="Cc1ccc(-c2nnc3c4ccccc4c(C)nn23)cc1S(=O)(=O)NC(C)c1ccccc1 (stereo not shown) [CBK266715]" result=94.5

The recorded viability at 28.5 h, 10 µM for entry Cc1c(NC(=O)CCCC(=O)O)c(=O)n(-c2ccccc2)n1C [CBK286532] equals 93.1

Value of measured viability at 28.5 h, 10 µM for the entry O=C(NCc1cccs1)c1cncc(-c2ccc(C(=O)N3CCOCC3)cc2)c1 [CBK158617] : 87.4

Item: CC1CCCN(CC(C)NC(=O)Cn2cnc3ccc(F)cc3c2=O)C1 (stereo not shown) [CBK305953] | viability at 28.5 h, 10 µM: 91.5

Record COc1cccc(CN2CCN(C(=O)N3CCCCC3)[C@@H](C)C2)c1 [CBK284266] , field viability at 28.5 h, 10 µM: 95

Just so you know, measured viability at 28.5 h, 10 µM for Nc1ncc(-c2ccc(C(=O)N3CCOCC3)cc2)cc1C(=O)Nc1ccc(C(F)(F)F)cc1 [CBK160204] came out at 90.6

viability at 28.5 h, 10 µM reported for this molecule CCn1c(CC2CCN(c3ncc(C#N)c(N)n3)CC2)nn(C)c1=O [CBK306788] : 93.3

For this molecule ( Cc1cccc(-c2ncc(C(=O)NCCc3c[nH]cn3)cc2-c2ccncc2)c1 [CBK036678] ), measured viability at 28.5 h, 10 µM is 86.9

// field: viability at 28.5 h, 10 µM; key: CS(=O)(=O)N(CC(=O)NC1CCCCCCC1)c1ccccc1 [CBK270112] ; value = 96.1

GET /value?item= O=C(Nc1sccc1C(=O)N1CCOCC1)C(Sc1ccccc1)c1ccccc1 (stereo not shown) [CBK268165] &field=viability at 28.5 h, 10 µM returns 95

// viability at 28.5 h, 10 µM value for O=C(O)C1CCC(CNc2ccc([N+](=O)[O-])cn2)CC1 (stereo not shown) [CBK286626] : 81.2

Values compiled from paper PMC12040169.
